test system: MS2 coat protein; assay: apparent KD of MS2 coat protein; designed switch direction (-1 OFF switch, 1 ON switch): -1; higher = weaker reporter binding; conditions: input ligand: microRNA oligo, concentration not stated
Measured apparent KD of MS2 coat protein accompanies every entry in the list below.
reported.property: apparent KD of MS2 coat protein (nM)

INSERT INTO assay_data (entry_sequence, reported_property, readout_units, quantitative_result) VALUES
  ('ACACUUGAACAUGAGGAUCACCCAUGUGUUUUUCUGGUUCGGCAGGAUAUCGUCUAACGCCAGGGCGAGAAGGGCCAAUAAAAG [Inlale] (Eterna round: R96, puzzle: Exclusion NG 3)', 'apparent KD of MS2 coat protein', 'nM', 29.4),
  ('UUAUUAAAUGUAGGAUAUGCAUAUUAUUAUUAUGCAGAAGGACAUGAGGAUCACCCAUGUAUAUUAUUAUUAUUUAUUAUAUAU [Title] (Eterna round: R96, puzzle: Exclusion NG 1)', 'apparent KD of MS2 coat protein', 'nM', 36.1),
  ('UGUCAGAUGGUAGGAUAUCCAUAUCGAGUGACCCUUUCUUAACAUGAGGAUCACCCAUGUCGGUGGGAGAAGGGCCGUAUGGUG [salish99_ExNG02_R04_032] (Eterna round: R96, puzzle: Exclusion NG 2)', 'apparent KD of MS2 coat protein', 'nM', 24);
